tested on: SW1736 cells (SW-EV, SW-TRβ); assay: LY294002 inhibition of ATC cell growth; assay type: cell-based; conditions: Homo sapiens, SW-1736, SW-TRβ, liganded (T3)
Endpoint: EC50 (nM)
Report the figure in nM without appending any unit label.

Task: Return the recorded EC50 value; entry: O=c1cc(N2CCOCC2)oc2c(-c3ccccc3)cccc12
Result: 1130

This collection of values is drawn from patent US20230255974A1.
